Assembled from different publications: log10 of IC50 for POLRMT (Homo sapiens (Human), UniProt O00411).
# log10 transformed; quantity=IC50; unit=µM

Below, 4 compounds whose answers are already recorded.
COC[C@@H](Nc1ccc2c(-c3ccccc3C)cc(=O)oc2c1)C(=O)N1CCC[C@H](C(=O)O)C1	-0.52
Cc1ccccc1-c1cc(=O)oc2cc(OC(C)C)cc(C)c12	-0.40
Cc1ccccc1-c1cc(=O)oc2nc(N3CCC(C(N)=O)C3)ccc12 (single isomer, unassigned)	0.85
Cc1ccccc1-c1cc(=O)oc2nc(N3CCCC3C(=O)O)ccc12 (single isomer, unassigned)	0.00

# input for lookup
What log10 of IC50 appears in the records for this compound with POLRMT (Homo sapiens (Human), UniProt O00411)? Cc1ccccc1-c1cc(=O)oc2cc(OC(C)C#N)ccc12 (single isomer, unassigned)
-1.30
